# Method summary: Solubility of the Example 6 drug at pH 2 and pH 6.8
# Type: physicochemical
# Assay conditions: pH 6.8, aqueous buffer, thermodynamic from solid
Quantity name: solubility

Chemical structure: CN1CCN(c2ccccc2/C=C2\SCCN(c3ccc(Cl)c(Cl)c3)C2=O)CC1.Cl.O
Result: 12 µg/mL
